For each record, write down the corresponding Bound peptides (%).
Biological target: αSyn fibrils (Homo sapiens, UniProt P37840)
Construct: made in house
Test: Binding of peptides and Surfen to preformed αSyn fibrils, sedimentation and reversed phase chromatography
Details: ligand 200 μM, αSyn fibrils 100 μM, 1h RT, PBS; pellet 20,000g; C18 reversed phase chromatography, absorbance 215 nm (peptides) or 260 nm (Surfen)
Experimental: Hsc70-derived peptides, the […] peptide or the Surfen molecule (0 or 200 μM) were incubated with or without αSyn fibrils (100 μM) for 1h at RT in PBS. The samples were centrifuged for 30 min in a […] tabletop centrifuge (Eppendorf) at 20,000g and 20°C. The pellets were first washed by 100 μL of 0.1% TFA and then dissolved for 30 min in 30 μL of pure TFA. […] The composition of each sample was assessed by phase reverse chromatography on a C18 column (Jupiter C18 300A from Phenomenex, Torrance, CA, USA). […]
No end group written: not given here.
Numbers only, in %.

Previously resolved entries follow.
1) FTTYSDNQPGV [Hsc-5]	1.4
2) LTGIPPAPRGVPQIE [Hsc-7]	0.6
3) GILNVSAVDKSTGKENKITITN [Hsc-10]	36
4) NMKATVEDEKLQGKINDEDKQKIL [Hsc-3]	0.6
5) VEDEKLQGKINDED [Hsc-2]	0.5

Could I get Bound peptides (%) for every one of these entries?
1. TKQTQTFTTYSDNQPGVLIQVYE [Hsc-6]
2. LSKEDIERMVQEAEKY [Hsc-1]

### Response
34
0.6

### Prompt Hi! What's the reported Bound peptides (%) for GKFELTGIPPAPRGVPQIEVT [Hsc-8] on αSyn fibrils (Homo sapiens, UniProt P37840)?
### Response 0.8

====

Test: Secondary structure content by far-UV circular dichroism
Format: physicochemical
Details: far-UV CD, 20°C, deconvoluted with Dichroweb
No end group written: not given here.
Exam item: assign met to entries whose Secondary structure composition α-helix is below 9% and not met to entries at or above 9%. Note that a value of exactly 9% receives not met.

Solved entries (count: 6):
1. GKFELTGIPPAPRGVPQIEVT [Hsc-8]	met
2. LTGIPPAPRGVPQIE [Hsc-7]	not met
3. TKQTQTFTTYSDNQPGVLIQVYE [Hsc-6]	met
4. GILNVSAVDKSTGKENKITITN [Hsc-10]	not met
5. FTTYSDNQPGV [Hsc-5]	met
6. VEDEKLQGKINDED [Hsc-2]	met

### Prompt Is the reported Secondary structure composition α-helix for LSKEDIERMVQEAEKY [Hsc-1] strictly below 9%?
### Response not met

====

Biological target: αSyn fibrils (Homo sapiens, UniProt P37840)
Construct: made in house
Experiment: Binding of peptides and Surfen to preformed αSyn fibrils, sedimentation and reversed phase chromatography
Conditions: ligand 200 μM, αSyn fibrils 100 μM, 1h RT, PBS; pellet 20,000g; C18 reversed phase chromatography, absorbance 215 nm (peptides) or 260 nm (Surfen)
No end group written: not given here.
property.name: Bound peptides (µM)
Numbers only, in µM.

Previously resolved entries follow.
1) LTGIPPAPRGVPQIE [Hsc-7]	1.2
2) VEDEKLQGKINDED [Hsc-2]	1.0
3) GILNVSAVDKSTGKENKITITN [Hsc-10]	72
4) GKFELTGIPPAPRGVPQIEVT [Hsc-8]	1.6
5) NMKATVEDEKLQGKINDEDKQKIL [Hsc-3]	1.2

Could I get Bound peptides for every one of these entries?
1. TKQTQTFTTYSDNQPGVLIQVYE [Hsc-6]
2. LSKEDIERMVQEAEKY [Hsc-1]
3. FTTYSDNQPGV [Hsc-5]

### Response
1: 68; 2: 1.2; 3: 2.8

====

Experiment: Secondary structure content by far-UV circular dichroism
Format: physicochemical
Conditions: far-UV CD, 20°C, deconvoluted with Dichroweb
No end group written: not given here.
property.name: Secondary structure composition other (%)
Numbers only, in %.

Could I get Secondary structure composition other for every one of these entries?
1. FTTYSDNQPGV [Hsc-5]
2. LTGIPPAPRGVPQIE [Hsc-7]
3. GKFELTGIPPAPRGVPQIEVT [Hsc-8]
4. NMKATVEDEKLQGKINDEDKQKIL [Hsc-3]
5. GILNVSAVDKSTGKENKITITN [Hsc-10]

### Response
[85, 73, 69, 84, 41]

Could I get Secondary structure composition other for every one of these entries?
1. VEDEKLQGKINDED [Hsc-2]
2. TKQTQTFTTYSDNQPGVLIQVYE [Hsc-6]
3. LSKEDIERMVQEAEKY [Hsc-1]

### Response
81
80
48
